measured-on: NADPH oxidase 5 (Homo sapiens)
assay-notes: compounds shifting NOX5 Amplex Red fluorescence – cell-based, HEK293-NOX5, NOX inhibitor project, primary screen (AID 1161)
details: HEK293-NOX5, ionomycin, 45 min, higher = more signal
metric: z-score
Give your answer as a number; write no unit.

# query: z-score of entry `CCCCC(=C=CC[C@H](O)c1ccccc1OCCO)C[C@H](O)c1ccccn1`
-1.37

# query: z-score of entry `CC(C)C[C@@H]1NC(=O)[C@@H]2C[C@H](C(=O)NCCCC[N+](C)(C)C)[C@H](c3cccc(OCCO)c3)N2C1=O`
-0.372

# query: z-score of entry `CCOC(=O)C[C@H]1[C@H](OC(=O)Cc2ccc3c(c2)OCO3)[C@@H](NC(=O)c2ccccc2)c2cc(OCCCO)ccc2N1C(=O)c1ccccc1`
0.322

# query: z-score of entry `COC(=O)[C@@]1(Cc2ccc(OC)cc2)[C@H]2c3cc(C(=O)N4CCCC4)n(Cc4ccc(C)o4)c3C[C@H]2CN1C(=O)c1ccccc1`
-0.354

# query: z-score of entry `CN(C)CCCCCCNC(=O)[C@@H]1C[C@@H]2C(=O)NCC(=O)N2[C@@H]1c1ccc(O)cc1`
0.524

# query: z-score of entry `COc1ccc([Si](C)(C)[C@H]2[C@H](CCO)O[C@@]3(C(=O)N(Cc4cccc(N5CCOC5=O)c4)c4ccccc43)[C@@H]2C)cc1`
0.479

# query: z-score of entry `C=C(COC)C(=O)CC[C@H](OC(=O)c1ccccc1-c1ccccc1C(=O)O)c1ccc(CO)o1`
-0.0437

====

measured-on: Dickkopf-related protein 1 (Homo sapiens) (UniProt O94907)
Sequence (O94907 whole entry, looked up): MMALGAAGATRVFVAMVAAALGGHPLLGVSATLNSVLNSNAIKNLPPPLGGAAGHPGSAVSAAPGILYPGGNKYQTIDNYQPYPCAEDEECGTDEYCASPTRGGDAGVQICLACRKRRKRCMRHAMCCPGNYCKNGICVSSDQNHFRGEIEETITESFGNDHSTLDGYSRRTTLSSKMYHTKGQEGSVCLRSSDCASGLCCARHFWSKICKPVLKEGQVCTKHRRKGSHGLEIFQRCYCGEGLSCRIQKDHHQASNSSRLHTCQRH
assay-notes: small molecules binding DKK1 protein – biochemical, small-molecule microarray, 635 nm fluorescence scan, primary screen (AID 1106);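 note: score merges emission near 667 nm with signal to noise over three replicate slides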
details: higher = more signal
Exercise: for every item that follows, state its recorded composite z-score.
Give your answer as a number; write no unit.

# query: composite z-score of entry `COCCOC(=O)N1C(=O)[C@@]2(c3cc(C#CCCO)ccc31)[C@H](C(=O)NC[C@H](O)c1ccccc1)[C@H]1C(=O)O[C@H](c3ccccc3)[C@H](c3ccccc3)N1[C@@H]2c1ccccc1OCCO`
1.06

# query: composite z-score of entry CCN(CC)c1ccc(N2CC=CC34O[C@@H]5/C=C\CCCOC(=O)C5[C@H]3C(=O)N(CCCCCO)[C@@H]4C2=O)cc1 (stereo partly drawn)
-1.01

# query: composite z-score of entry C=CCC(OC(C)=O)[C@@H]1[C@@H](N(Cc2ccc(-c3ccccc3)cc2)C(=O)Cc2ccc(OC)cc2)c2cc(OCCCO)ccc2N1C(=O)c1ccc(-c2ccccc2)cc1 (stereo partly drawn)
-0.18

# query: composite z-score of entry `Cc1ccc(F)cc1S(=O)(=O)N[C@@H]1CCN(C(=O)c2ccc(OC(C)C)cc2)C1`
0.463

# query: composite z-score of entry `C=C(C(=O)CC[C@H](OC(=O)c1cccnc1)c1ccc(OCCO)cc1)C(C)C`
-0.17

# query: composite z-score of entry `C#CCNS(=O)(=O)N(C)C`
0.216

# query: composite z-score of entry CN1C(=O)C2C=CC(C(O)C3CCCCC3)N(N(c3ccccc3)c3ccccc3)C2C1=O (stereo not drawn)
-1.28

# query: composite z-score of entry `COc1ccc([Si](C)(C)[C@H]2[C@H](CC(=O)N3CCC[C@H]3CO)O[C@@]3(C(=O)N(Cc4ccc(N5C(=O)c6cccc7cccc5c67)cc4)c4ccccc43)[C@@H]2C)cc1`
0.736
